Values were extracted from patent US20220096649A1.

assayed-system: T1, SIRP-α mouse BL6 (mouse (BL6), UniProt P97797 32-150, limits assumed)
T1 construct: Soluble analyte in SPR
T1 sequence (looked up): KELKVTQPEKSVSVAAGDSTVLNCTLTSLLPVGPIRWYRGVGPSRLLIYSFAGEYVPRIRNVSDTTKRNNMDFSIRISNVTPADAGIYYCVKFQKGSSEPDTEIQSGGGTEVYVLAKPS
test-method-notes: SPR, antibody on GLC chip, SIRP as analyte
In this section, each of the binders is paired with its reported pKd.
pKd is defined as minus the log10 of a concentration measured in mol/L.

// worked examples, pKd included
Anti-SIRP-α antibody 136, light chain Mut_I2T, heavy chain Mut (antibody, V domains shown, Whole antibody) VH: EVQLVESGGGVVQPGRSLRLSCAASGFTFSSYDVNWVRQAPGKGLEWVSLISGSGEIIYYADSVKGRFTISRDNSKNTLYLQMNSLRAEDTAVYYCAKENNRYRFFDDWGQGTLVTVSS VL: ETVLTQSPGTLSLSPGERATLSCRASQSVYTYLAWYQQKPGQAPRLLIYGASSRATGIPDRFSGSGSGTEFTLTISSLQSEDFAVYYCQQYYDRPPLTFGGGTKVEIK ... 7.82
Anti-SIRP-α antibody 136, light chain Mut_Q38E, heavy chain Mut (antibody, V domains shown, Whole antibody) VH: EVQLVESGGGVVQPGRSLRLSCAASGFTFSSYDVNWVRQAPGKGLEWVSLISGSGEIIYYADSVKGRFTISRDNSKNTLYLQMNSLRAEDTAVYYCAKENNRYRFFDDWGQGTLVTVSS VL: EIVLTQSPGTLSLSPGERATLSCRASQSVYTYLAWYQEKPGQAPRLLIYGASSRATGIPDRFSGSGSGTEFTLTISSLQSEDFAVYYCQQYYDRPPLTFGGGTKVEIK ... 7.48
Anti-SIRP-α antibody 136, light chain Mut_S22T, heavy chain Mut (antibody, V domains shown, Whole antibody) VH: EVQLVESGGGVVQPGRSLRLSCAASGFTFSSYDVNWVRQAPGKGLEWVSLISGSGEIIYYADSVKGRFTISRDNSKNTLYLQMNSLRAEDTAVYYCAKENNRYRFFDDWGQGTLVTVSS VL: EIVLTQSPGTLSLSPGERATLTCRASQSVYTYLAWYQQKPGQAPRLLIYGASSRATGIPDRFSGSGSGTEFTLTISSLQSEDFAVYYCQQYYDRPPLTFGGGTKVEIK ... 7.89
Anti-SIRP-α antibody 136, light chain Mut, heavy chain Mut (antibody, V domains shown, Whole antibody) VH: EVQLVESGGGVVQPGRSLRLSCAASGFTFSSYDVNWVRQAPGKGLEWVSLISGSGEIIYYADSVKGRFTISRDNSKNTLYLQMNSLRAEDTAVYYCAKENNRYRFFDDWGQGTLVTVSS VL: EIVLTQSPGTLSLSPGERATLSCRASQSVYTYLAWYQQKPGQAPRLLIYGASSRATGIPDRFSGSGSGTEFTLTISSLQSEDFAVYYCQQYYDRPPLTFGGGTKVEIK ... 7.49
Anti-SIRP-α antibody 136, light chain Mut_S12T, heavy chain Mut (antibody, V domains shown, Whole antibody) VH: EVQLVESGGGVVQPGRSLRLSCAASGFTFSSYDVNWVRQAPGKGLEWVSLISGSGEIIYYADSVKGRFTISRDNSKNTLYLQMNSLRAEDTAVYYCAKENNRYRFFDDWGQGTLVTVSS VL: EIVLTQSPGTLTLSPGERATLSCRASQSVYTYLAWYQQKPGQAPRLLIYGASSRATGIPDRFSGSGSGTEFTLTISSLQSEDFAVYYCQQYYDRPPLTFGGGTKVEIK ... 7.80

input: Entry Hum1/AB21_HC_Mutall (antibody, V domains shown, Whole antibody) VH: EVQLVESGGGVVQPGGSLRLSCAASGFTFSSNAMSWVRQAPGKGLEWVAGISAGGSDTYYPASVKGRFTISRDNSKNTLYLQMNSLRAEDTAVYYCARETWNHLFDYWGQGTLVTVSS VL: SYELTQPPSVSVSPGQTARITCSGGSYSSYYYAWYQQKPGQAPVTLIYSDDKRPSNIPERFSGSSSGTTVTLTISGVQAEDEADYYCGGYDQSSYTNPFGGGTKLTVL has what pKd?
output: 8.02

input: What value of measured pKd is listed for Anti-SIRP-α antibody 136, light chain wt, heavy chain Mut (antibody, V domains shown, Whole antibody; Heavy chain mut = D1E, R13Q, E16R, M34V, E43K, L111Q) VH: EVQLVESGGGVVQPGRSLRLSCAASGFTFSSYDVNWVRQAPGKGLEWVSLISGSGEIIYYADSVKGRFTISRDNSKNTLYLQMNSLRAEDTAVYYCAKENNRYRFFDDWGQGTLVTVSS VL: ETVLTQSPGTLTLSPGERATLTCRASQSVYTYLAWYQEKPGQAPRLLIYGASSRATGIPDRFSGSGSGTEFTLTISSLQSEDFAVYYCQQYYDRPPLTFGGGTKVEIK ?
output: 7.64

input: Entry under review: Anti-SIRP-α antibody 136, light chain Mut_I2T, heavy chain Mut_V34M (antibody, V domains shown, Whole antibody) VH: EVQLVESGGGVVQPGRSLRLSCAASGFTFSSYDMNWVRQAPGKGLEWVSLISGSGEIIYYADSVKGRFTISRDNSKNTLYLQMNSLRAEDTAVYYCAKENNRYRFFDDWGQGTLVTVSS VL: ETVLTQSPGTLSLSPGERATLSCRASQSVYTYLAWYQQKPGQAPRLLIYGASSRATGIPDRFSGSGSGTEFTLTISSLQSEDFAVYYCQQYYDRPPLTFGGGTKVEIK . Reported pKd?
output: 7.85
